Item-by-item account of pEC50
Molecular target: PI3Kα (Mus musculus)
Construct: endogenous in cells
Sequence (P42337 whole entry): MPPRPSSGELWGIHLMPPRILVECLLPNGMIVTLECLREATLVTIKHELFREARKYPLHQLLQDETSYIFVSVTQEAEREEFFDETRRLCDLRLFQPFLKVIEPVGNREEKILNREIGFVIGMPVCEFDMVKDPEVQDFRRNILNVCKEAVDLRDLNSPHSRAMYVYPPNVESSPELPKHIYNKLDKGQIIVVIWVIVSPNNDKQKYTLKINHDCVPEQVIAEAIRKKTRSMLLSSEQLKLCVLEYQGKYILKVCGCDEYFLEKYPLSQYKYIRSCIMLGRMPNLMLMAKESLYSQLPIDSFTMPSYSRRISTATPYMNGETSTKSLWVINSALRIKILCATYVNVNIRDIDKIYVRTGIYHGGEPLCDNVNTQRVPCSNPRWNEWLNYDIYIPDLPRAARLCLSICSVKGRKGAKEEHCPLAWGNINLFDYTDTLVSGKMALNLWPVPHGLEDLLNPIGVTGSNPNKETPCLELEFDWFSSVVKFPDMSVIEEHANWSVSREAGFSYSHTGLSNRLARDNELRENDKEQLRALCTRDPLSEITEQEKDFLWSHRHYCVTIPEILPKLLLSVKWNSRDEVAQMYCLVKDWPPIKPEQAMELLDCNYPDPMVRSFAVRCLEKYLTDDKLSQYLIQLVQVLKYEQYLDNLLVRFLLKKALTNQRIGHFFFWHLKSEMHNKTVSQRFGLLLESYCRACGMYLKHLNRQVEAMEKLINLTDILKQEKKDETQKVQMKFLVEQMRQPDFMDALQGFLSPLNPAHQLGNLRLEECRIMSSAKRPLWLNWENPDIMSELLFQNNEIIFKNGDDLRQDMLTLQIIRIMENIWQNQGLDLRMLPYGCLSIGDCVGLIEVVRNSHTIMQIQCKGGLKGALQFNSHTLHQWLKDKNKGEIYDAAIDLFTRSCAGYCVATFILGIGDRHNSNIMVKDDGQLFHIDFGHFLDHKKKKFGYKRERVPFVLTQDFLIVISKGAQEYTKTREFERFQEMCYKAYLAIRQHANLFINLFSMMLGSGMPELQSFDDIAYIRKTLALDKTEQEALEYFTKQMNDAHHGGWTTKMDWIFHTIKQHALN
Sequence (P26450 whole entry partner): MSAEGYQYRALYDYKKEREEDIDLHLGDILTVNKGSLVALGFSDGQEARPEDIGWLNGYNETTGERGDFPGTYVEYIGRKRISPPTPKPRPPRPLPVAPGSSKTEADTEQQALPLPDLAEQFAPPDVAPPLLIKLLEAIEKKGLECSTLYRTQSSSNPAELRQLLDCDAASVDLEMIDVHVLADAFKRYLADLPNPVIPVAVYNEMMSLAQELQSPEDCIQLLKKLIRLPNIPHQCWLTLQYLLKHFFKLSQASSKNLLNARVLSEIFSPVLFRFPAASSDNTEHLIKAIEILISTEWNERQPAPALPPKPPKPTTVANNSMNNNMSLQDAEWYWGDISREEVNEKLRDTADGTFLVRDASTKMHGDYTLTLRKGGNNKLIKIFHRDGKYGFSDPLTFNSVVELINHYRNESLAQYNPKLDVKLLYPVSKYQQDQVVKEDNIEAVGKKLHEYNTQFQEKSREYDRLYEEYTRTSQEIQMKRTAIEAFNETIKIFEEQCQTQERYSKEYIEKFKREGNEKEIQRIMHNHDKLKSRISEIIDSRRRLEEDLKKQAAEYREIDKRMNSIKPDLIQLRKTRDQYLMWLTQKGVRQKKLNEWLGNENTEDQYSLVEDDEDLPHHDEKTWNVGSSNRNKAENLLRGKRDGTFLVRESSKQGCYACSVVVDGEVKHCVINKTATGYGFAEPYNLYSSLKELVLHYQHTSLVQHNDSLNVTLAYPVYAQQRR
Test: PI3Kα-dependent cell-based assay: PDGF-BB mediated AKT phosphorylation in Swiss-3T3 cells
Settings: PDGF-BB-induced AKT phosphorylation, Swiss-3T3 fibroblasts
pEC50: −log10 of the molar value.
METRIC: pEC50

INSERT INTO measurements (molecule, metric, assay_value) VALUES
  ('CC(Nc1ncnc2[nH]cnc12)c1nc2ccccc2nc1-c1c(F)cccc1F (stereo not drawn)', 'pEC50', '< 4.70'),
  ('Cc1cccc(-c2nc3ccccc3nc2C(C)Nc2ncnc3[nH]cnc23)c1 (stereo not drawn)', 'pEC50', '< 4.70'),
  ('CCC(Nc1ncnc2[nH]cnc12)c1nc2cccc(C)c2nc1-c1ccccc1 (stereo not drawn)', 'pEC50', '< 4.70'),
  ('CCC(Nc1ncnc2[nH]cnc12)c1nc2ccccc2nc1-c1ccccc1 (stereo not drawn)', 'pEC50', '< 4.70'),
  ('Cc1cccc2nc(C(C)Nc3nc(N)nc4[nH]cnc34)c(-c3ccc(F)cc3)nc12 (stereo not drawn)', 'pEC50', 4.84),
  ('Cc1cccc2nc(C(C)Nc3ncnc4[nH]cnc34)c(-c3ccc(F)cc3)nc12 (stereo not drawn)', 'pEC50', 4.82),
  ('CCC(Nc1ncnc2[nH]cnc12)c1nc2cccc(F)c2nc1-c1ccccc1 (stereo not drawn)', 'pEC50', '< 4.70'),
  ('CC(Nc1ncnc2[nH]cnc12)c1nc2ccccc2nc1-c1ccccc1 (stereo not drawn)', 'pEC50', '< 4.70'),
  ('CC(Nc1ncnc2[nH]cnc12)c1nc2ccccc2nc1-c1cc(F)cc(F)c1 (stereo not drawn)', 'pEC50', '< 4.70');
